# ASSAYED TARGET: OATP1B3 (Homo sapiens, UniProt Q9NPD5)
# Construct: host or cells: MDCK
# Sequence (Q9NPD5 whole entry): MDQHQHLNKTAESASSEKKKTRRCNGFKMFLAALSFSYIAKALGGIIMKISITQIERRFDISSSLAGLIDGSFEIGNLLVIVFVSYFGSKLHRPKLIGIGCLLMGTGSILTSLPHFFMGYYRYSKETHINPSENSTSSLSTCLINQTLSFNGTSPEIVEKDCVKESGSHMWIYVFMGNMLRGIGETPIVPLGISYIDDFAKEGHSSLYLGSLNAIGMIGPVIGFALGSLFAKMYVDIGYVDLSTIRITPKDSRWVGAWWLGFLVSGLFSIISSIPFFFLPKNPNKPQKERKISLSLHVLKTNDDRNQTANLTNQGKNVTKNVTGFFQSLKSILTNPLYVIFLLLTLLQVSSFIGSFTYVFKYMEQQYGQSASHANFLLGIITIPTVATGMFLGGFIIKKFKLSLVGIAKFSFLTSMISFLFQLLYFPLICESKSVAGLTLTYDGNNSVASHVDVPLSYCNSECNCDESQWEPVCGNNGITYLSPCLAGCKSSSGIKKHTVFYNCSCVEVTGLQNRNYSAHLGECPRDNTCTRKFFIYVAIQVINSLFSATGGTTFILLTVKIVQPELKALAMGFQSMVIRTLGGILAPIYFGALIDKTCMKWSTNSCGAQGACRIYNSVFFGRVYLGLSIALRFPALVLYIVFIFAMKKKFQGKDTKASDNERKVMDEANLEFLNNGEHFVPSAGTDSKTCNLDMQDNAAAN
# TEST: Uptake transporter inhibition in transfected HEK 293 or MDCK cells
# Format: in vitro ADME
# CONDITION SET: human, HEK 293 or MDCK cells transfected with OATP1B3, at 500 µM
REPORTED PROPERTY: inhibition at 500 µM
Include the unit after the number when you answer.

Entry under test: `NC[C@H]1OB(O)c2c(OCCCO)cccc21` . Its inhibition at 500 µM was 21%

----------
# ASSAYED TARGET: OATP1B1 (Homo sapiens)
# Construct: host or cells: MDCK
# Sequence (Q9Y6L6 whole entry): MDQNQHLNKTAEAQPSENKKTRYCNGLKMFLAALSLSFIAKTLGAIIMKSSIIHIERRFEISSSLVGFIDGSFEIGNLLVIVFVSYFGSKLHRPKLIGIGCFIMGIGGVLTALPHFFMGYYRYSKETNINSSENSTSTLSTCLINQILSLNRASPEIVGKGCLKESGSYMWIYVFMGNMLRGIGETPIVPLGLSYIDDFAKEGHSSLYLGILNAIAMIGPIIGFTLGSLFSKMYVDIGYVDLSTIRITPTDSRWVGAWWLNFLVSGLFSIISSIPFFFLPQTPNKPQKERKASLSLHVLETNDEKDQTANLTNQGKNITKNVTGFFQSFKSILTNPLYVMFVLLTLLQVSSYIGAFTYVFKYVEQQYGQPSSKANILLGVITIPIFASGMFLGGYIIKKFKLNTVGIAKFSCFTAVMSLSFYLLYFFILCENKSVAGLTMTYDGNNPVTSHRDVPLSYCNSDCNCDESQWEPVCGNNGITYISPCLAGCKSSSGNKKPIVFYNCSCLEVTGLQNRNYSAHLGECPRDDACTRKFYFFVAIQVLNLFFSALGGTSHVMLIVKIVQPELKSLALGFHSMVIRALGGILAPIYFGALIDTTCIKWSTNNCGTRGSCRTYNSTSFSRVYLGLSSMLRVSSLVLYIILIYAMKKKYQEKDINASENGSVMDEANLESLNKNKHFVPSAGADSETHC
# TEST: Uptake transporter inhibition in transfected HEK 293 or MDCK cells
# Format: in vitro ADME
# CONDITION SET: human, HEK 293 or MDCK cells transfected with OATP1B1, at 500 µM
REPORTED PROPERTY: inhibition at 500 µM (%)
Expressed in %, but write only the number.

Entry under test: `NC[C@H]1OB(O)c2c(OCCCO)cccc21` . Its inhibition at 500 µM was 25
